Hey, just so you know, these numbers are from patent US12692236B2.

Molecular target: sigma-1 receptor (Homo sapiens)
Sequence (Q99720 whole entry, species assumed): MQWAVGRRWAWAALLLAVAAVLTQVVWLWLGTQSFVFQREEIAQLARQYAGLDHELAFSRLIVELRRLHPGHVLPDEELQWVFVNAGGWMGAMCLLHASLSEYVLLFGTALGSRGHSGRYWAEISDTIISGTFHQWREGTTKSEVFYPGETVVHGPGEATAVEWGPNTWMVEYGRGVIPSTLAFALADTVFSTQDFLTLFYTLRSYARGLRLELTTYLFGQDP
Experiment: sigma-1 receptor binding affinity (Ki)
Settings: read-out: Ki (nM) Sigma-1
Ki listing for selected compounds.
Quick note: give the figure in nM, leave out the unit.

O=C(c1c2c(nn1-c1ccc(F)cc1)CCC(NCCc1ccncc1)C2)N1CCCCC1 (centres unmarked) [compound 201116] ... 103
C=Cc1ccc(-n2nc3c(c2C(=O)N2CCCCC2)CC(NCCc2ccccc2)CC3)cc1 (centres unmarked) [compound 201591] ... 96
O=C(c1nn(-c2ccccc2)c2c1CC(NCc1ccc(F)cc1)CC2)N1CCCCC1 (centres unmarked) [compound 2001685] ... 159
NC(=O)c1ccc(-n2nc3c(c2C(=O)N2CCCCC2)CC(NCCc2ccccc2)CC3)cc1 (centres unmarked) [compound 201242] ... 588

Consider the record given below.
Please give the documented Ki of O=C(c1nn(-c2ccccc2)c2c1CC(NCCc1ccc(F)cc1)CC2)N1CCCCC1 (centres unmarked) [compound 201667]
131

----------
Property: log10 Ki; scope: individual molecules
Target: sigma-2 receptor (Homo sapiens, UniProt Q5BJF2)
Sequence (Q5BJF2 whole entry, species assumed): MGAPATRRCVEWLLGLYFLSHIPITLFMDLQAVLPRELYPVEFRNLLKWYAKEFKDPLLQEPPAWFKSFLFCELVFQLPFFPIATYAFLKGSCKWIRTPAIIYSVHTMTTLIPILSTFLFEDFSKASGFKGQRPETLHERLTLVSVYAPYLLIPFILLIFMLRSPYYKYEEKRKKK
Experiment: sigma-2 receptor binding affinity (Ki)
Conditions: read-out: Ki (nM) Sigma-2
Record value = log10 of Ki given in nM.

Solved cases below.
CCCn1nc(C(=O)N2CCCCC2)c2c1CCC(Nc1ccc(N3CCCCC3)cc1)C2 (centres unmarked) ... 2.90
O=C(c1nn(-c2ccccc2)c2c1CC(NCc1ccccc1)CC2)N1CCCCC1 (centres unmarked) ... 2.69
CCCn1nc(C(=O)N2CCCCC2)c2c1CCC(NCC1CCOCC1)C2 (centres unmarked) ... 2.85
O=C(c1c2c(nn1-c1ccc(F)cc1)CCC(NCCc1ccncc1)C2)N1CCCCC1 (centres unmarked) ... 2.40
CCCn1nc(C(=O)N2CCCCC2)c2c1CCC(N1CCc3ccccc3C1)C2 (centres unmarked) ... 1.49

Kindly indicate its recorded log10 Ki. Item: CCCn1nc(C(=O)N(C)C)c2c1CCC(NCc1ccc(OC)cc1OC)C2 (centres unmarked)
2.92

State its log10 Ki for this molecule: CCCn1nc(C(=O)N2CCCCC2)c2c1CCC(N1CCC(c3ccncc3)CC1)C2 (centres unmarked)
1.20

Entry CCCn1nc(C(=O)N2CCCCC2)c2c1CCC(Nc1ccc(Oc3ccccc3)cc1)C2 (centres unmarked) needs its log10 Ki filled in; supply it.
2.49

Please look at this molecule and report its log10 Ki: CCCn1nc(C(=O)N2CCCCC2)c2c1CCC(N(C)Cc1ccc(F)cc1)C2 (centres unmarked)
1.28

Identify measured log10 Ki associated with O=C(c1nn(-c2ccccc2)c2c1CC(NCCc1ccncc1)CC2)N1CCCCC1 (centres unmarked)
2.71

// fetch log10 Ki given entry CCCn1nc(C(=O)N(C)C)c2c1CCC(NCc1ccc(F)cc1)C2 (centres unmarked)
3.34

Give the measured log10 Ki for CCCn1nc(C(=O)N2CCCCC2)c2c1CCC(NCCCN1CCCC1=O)C2 (centres unmarked)
2.83

Read the entry C=Cc1ccc(-n2nc(C(=O)N3CCCCC3)c3c2CCC(NCCc2ccccc2)C3)cc1 (centres unmarked) and write its reported log10 Ki.
2.48

----------
Target: UniProt Q99720
Assay: sigma-1 receptor binding affinity (Ki)
Details: read-out: Ki sigma-1
PROPERTY LABEL: Ki (nM)
# value in nM; strip the unit string

Tell me its Ki given CCCn1nc(C(=O)N(C)C)c2c1CCC(NCc1ccc(F)cc1)C2 (stereo not shown) as the entry.
1500
